- measurement description: Mouse pharmacokinetics, i.v. bolus
- condition details: in vivo, iv, male ICR (CD-1) mice, single 1 mg/kg slow i.v. bolus, plasma, LC-MS/MS, noncompartmental from mean profile, n = 3/time point
Starred links: 1 amine or outer side, 2 acyl side, 3 side chain; linkers in the order of their positions; H or OH if unused. Positions of bridges follow the written chain, without caps; N, C: chain ends. Non-standard residues stand in square brackets, D forms with d. Residues, ends and D or L forms follow the SMILES beside them. *: point of attachment. Orn(4R-OH,5R-OCH2CH2NMe3+) = C[N+](C)(C)CCO[C@@H](N[*:3])[C@H](O)C[C@H](N[*:1])C(=O)[*:2]; pTerphenylCO(4''-OnC5H11) = CCCCCOc1ccc(-c2ccc(-c3ccc(C(=O)*)cc3)cc2)cc1; Orn(4R-OH,5R-OH) = O=C([C@H](C[C@@H](O)[C@@H](O)N[*:3])N[*:1])[*:2]; hTyr(3S-OH,4S-OH) = N[C@H](C(=O)O)[C@H](O)[C@@H](O)c1ccc(O)cc1; Pro(3S-OH,4S-Me) = C[C@H]1CN[C@H](C(=O)O)[C@H]1O; Hyp = O=C(O)[C@@H]1C[C@@H](O)CN1
reported property: half-life (h)

CCCCCOc1ccc(-c2ccc(-c3ccc(C(=O)N[C@H]4C[C@@H](O)[C@@H](O)NC(=O)[C@@H]5[C@@H](O)[C@@H](C)CN5C(=O)[C@H]([C@@H](C)O)NC(=O)[C@H]([C@H](O)[C@@H](O)c5ccc(O)cc5)NC(=O)[C@@H]5C[C@@H](O)CN5C(=O)[C@H]([C@@H](C)O)NC4=O)cc3)cc2)cc1 [anidulafungin] ({pTerphenylCO(4''-OnC5H11)}-[Orn(4R-OH,5R-OH)]T[Hyp][hTyr(3S-OH,4S-OH)]T[Pro(3S-OH,4S-Me)]; lactam 1-C): 19
CCCCCOc1ccc(-c2ccc(-c3ccc(C(=O)N[C@H]4C[C@@H](O)[C@@H](OCC[N+](C)(C)C)NC(=O)[C@@H]5[C@@H](O)[C@@H](C)CN5C(=O)[C@H]([C@@H](C)O)NC(=O)[C@H]([C@H](O)[C@@H](O)c5ccc(O)cc5)NC(=O)[C@@H]5C[C@@H](O)CN5C(=O)[C@H]([C@@H](C)O)NC4=O)cc3)cc2)cc1 [CD101] ({pTerphenylCO(4''-OnC5H11)}-[Orn(4R-OH,5R-OCH2CH2NMe3+)]T[Hyp][hTyr(3S-OH,4S-OH)]T[Pro(3S-OH,4S-Me)]; lactam 1-C): 25.2

====

- measurement description: Rat pharmacokinetics, i.v. bolus
- Format: in vivo, Sprague-Dawley rats
- condition details: rat, in vivo, iv, 5 mg/kg, male Sprague-Dawley rats, single 5 mg/kg slow i.v. bolus, plasma, LC-MS/MS, noncompartmental, n = 3 to 5/dose
Starred links: 1 amine or outer side, 2 acyl side, 3 side chain; linkers in the order of their positions; H or OH if unused. Positions of bridges follow the written chain, without caps; N, C: chain ends. Non-standard residues stand in square brackets, D forms with d. Residues, ends and D or L forms follow the SMILES beside them. *: point of attachment. Orn(4R-OH,5R-OCH2CH2NMe3+) = C[N+](C)(C)CCO[C@@H](N[*:3])[C@H](O)C[C@H](N[*:1])C(=O)[*:2]; pTerphenylCO(4''-OnC5H11) = CCCCCOc1ccc(-c2ccc(-c3ccc(C(=O)*)cc3)cc2)cc1; hTyr(3S-OH,4S-OH) = N[C@H](C(=O)O)[C@H](O)[C@@H](O)c1ccc(O)cc1; Pro(3S-OH,4S-Me) = C[C@H]1CN[C@H](C(=O)O)[C@H]1O; Hyp = O=C(O)[C@@H]1C[C@@H](O)CN1
reported property: half-life (min)

CCCCCOc1ccc(-c2ccc(-c3ccc(C(=O)N[C@H]4C[C@@H](O)[C@@H](OCC[N+](C)(C)C)NC(=O)[C@@H]5[C@@H](O)[C@@H](C)CN5C(=O)[C@H]([C@@H](C)O)NC(=O)[C@H]([C@H](O)[C@@H](O)c5ccc(O)cc5)NC(=O)[C@@H]5C[C@@H](O)CN5C(=O)[C@H]([C@@H](C)O)NC4=O)cc3)cc2)cc1 [CD101] ({pTerphenylCO(4''-OnC5H11)}-[Orn(4R-OH,5R-OCH2CH2NMe3+)]T[Hyp][hTyr(3S-OH,4S-OH)]T[Pro(3S-OH,4S-Me)]; lactam 1-C): 2090

====

- measurement description: Rat tissue distribution after i.v. bolus
- Type: in vivo, Sprague-Dawley rats
- condition details: rat, brain / plasma, iv; male Sprague-Dawley rats, single 5 mg/kg i.v. bolus, t = 120 h, tissue homogenate, LC-MS/MS, n = 3/time point; read-out: Tissue/plasma AUC0–t ratio, brain
Starred links: 1 amine or outer side, 2 acyl side, 3 side chain; linkers in the order of their positions; H or OH if unused. Positions of bridges follow the written chain, without caps; N, C: chain ends. Non-standard residues stand in square brackets, D forms with d. Residues, ends and D or L forms follow the SMILES beside them. *: point of attachment. Orn(4R-OH,5R-OCH2CH2NMe3+) = C[N+](C)(C)CCO[C@@H](N[*:3])[C@H](O)C[C@H](N[*:1])C(=O)[*:2]; pTerphenylCO(4''-OnC5H11) = CCCCCOc1ccc(-c2ccc(-c3ccc(C(=O)*)cc3)cc2)cc1; hTyr(3S-OH,4S-OH) = N[C@H](C(=O)O)[C@H](O)[C@@H](O)c1ccc(O)cc1; Pro(3S-OH,4S-Me) = C[C@H]1CN[C@H](C(=O)O)[C@H]1O; Hyp = O=C(O)[C@@H]1C[C@@H](O)CN1
reported property: Kp

CCCCCOc1ccc(-c2ccc(-c3ccc(C(=O)N[C@H]4C[C@@H](O)[C@@H](OCC[N+](C)(C)C)NC(=O)[C@@H]5[C@@H](O)[C@@H](C)CN5C(=O)[C@H]([C@@H](C)O)NC(=O)[C@H]([C@H](O)[C@@H](O)c5ccc(O)cc5)NC(=O)[C@@H]5C[C@@H](O)CN5C(=O)[C@H]([C@@H](C)O)NC4=O)cc3)cc2)cc1 [CD101] ({pTerphenylCO(4''-OnC5H11)}-[Orn(4R-OH,5R-OCH2CH2NMe3+)]T[Hyp][hTyr(3S-OH,4S-OH)]T[Pro(3S-OH,4S-Me)]; lactam 1-C): 0.609

====

- measurement description: Mouse pharmacokinetics, i.p. injection
- condition details: in vivo, ip, female ICR (CD-1) mice, single 1 mg/kg i.p., plasma, LC-MS/MS, noncompartmental from mean profile, n = 3/time point
Starred links: 1 amine or outer side, 2 acyl side, 3 side chain; linkers in the order of their positions; H or OH if unused. Positions of bridges follow the written chain, without caps; N, C: chain ends. Non-standard residues stand in square brackets, D forms with d. Residues, ends and D or L forms follow the SMILES beside them. *: point of attachment. Orn(4R-OH,5R-OCH2CH2NMe3+) = C[N+](C)(C)CCO[C@@H](N[*:3])[C@H](O)C[C@H](N[*:1])C(=O)[*:2]; pTerphenylCO(4''-OnC5H11) = CCCCCOc1ccc(-c2ccc(-c3ccc(C(=O)*)cc3)cc2)cc1; hTyr(3S-OH,4S-OH) = N[C@H](C(=O)O)[C@H](O)[C@@H](O)c1ccc(O)cc1; Pro(3S-OH,4S-Me) = C[C@H]1CN[C@H](C(=O)O)[C@H]1O; Hyp = O=C(O)[C@@H]1C[C@@H](O)CN1
reported property: Cmax (ng/mL)

CCCCCOc1ccc(-c2ccc(-c3ccc(C(=O)N[C@H]4C[C@@H](O)[C@@H](OCC[N+](C)(C)C)NC(=O)[C@@H]5[C@@H](O)[C@@H](C)CN5C(=O)[C@H]([C@@H](C)O)NC(=O)[C@H]([C@H](O)[C@@H](O)c5ccc(O)cc5)NC(=O)[C@@H]5C[C@@H](O)CN5C(=O)[C@H]([C@@H](C)O)NC4=O)cc3)cc2)cc1 [CD101] ({pTerphenylCO(4''-OnC5H11)}-[Orn(4R-OH,5R-OCH2CH2NMe3+)]T[Hyp][hTyr(3S-OH,4S-OH)]T[Pro(3S-OH,4S-Me)]; lactam 1-C): 3970

====

- measurement description: Mouse pharmacokinetics, i.p. injection
- condition details: in vivo, ip, female ICR (CD-1) mice, single 4 mg/kg i.p., plasma, LC-MS/MS, noncompartmental from mean profile, n = 3/time point
Starred links: 1 amine or outer side, 2 acyl side, 3 side chain; linkers in the order of their positions; H or OH if unused. Positions of bridges follow the written chain, without caps; N, C: chain ends. Non-standard residues stand in square brackets, D forms with d. Residues, ends and D or L forms follow the SMILES beside them. *: point of attachment. Orn(4R-OH,5R-OCH2CH2NMe3+) = C[N+](C)(C)CCO[C@@H](N[*:3])[C@H](O)C[C@H](N[*:1])C(=O)[*:2]; pTerphenylCO(4''-OnC5H11) = CCCCCOc1ccc(-c2ccc(-c3ccc(C(=O)*)cc3)cc2)cc1; hTyr(3S-OH,4S-OH) = N[C@H](C(=O)O)[C@H](O)[C@@H](O)c1ccc(O)cc1; Pro(3S-OH,4S-Me) = C[C@H]1CN[C@H](C(=O)O)[C@H]1O; Hyp = O=C(O)[C@@H]1C[C@@H](O)CN1
reported property: Cmax (ng/mL)

CCCCCOc1ccc(-c2ccc(-c3ccc(C(=O)N[C@H]4C[C@@H](O)[C@@H](OCC[N+](C)(C)C)NC(=O)[C@@H]5[C@@H](O)[C@@H](C)CN5C(=O)[C@H]([C@@H](C)O)NC(=O)[C@H]([C@H](O)[C@@H](O)c5ccc(O)cc5)NC(=O)[C@@H]5C[C@@H](O)CN5C(=O)[C@H]([C@@H](C)O)NC4=O)cc3)cc2)cc1 [CD101] ({pTerphenylCO(4''-OnC5H11)}-[Orn(4R-OH,5R-OCH2CH2NMe3+)]T[Hyp][hTyr(3S-OH,4S-OH)]T[Pro(3S-OH,4S-Me)]; lactam 1-C): 13600
